ASSAY SYSTEM: T1, MHC class I molecule A*0101 (biotin (bound to streptavidin-coated plate))
T1 construct: iTopia monomer stripped of placeholder peptide and b2M, then reconstituted with test peptide and fresh b2M; also called A1; HLA-A1
METHOD SUMMARY: iTopia peptide binding assay
Parameter: binding, % of positive control peptide. Scope: all listed entries.
ENDPOINT: binding, % of positive control peptide

BINDER	OBSERVED MEASUREMENT
DCDPILPPS [5T4 9-mer peptide 172 (DCDPILPPS)]	0 % of positive control
NNSLVSLTY [5T4 9-mer peptide 122 (NNSLVSLTY)]	8 % of positive control
YRYEINADP [5T4 9-mer peptide 201 (YRYEINADP)]	0 % of positive control
INADPRLTN [5T4 9-mer peptide 203 (INADPRLTN)]	0 % of positive control
IRVFLDNNP [5T4 9-mer peptide 144 (IRVFLDNNP)]	0 % of positive control
LGIVLALIG [5T4 9-mer peptide 180 (LGIVLALIG)]	0 % of positive control
GKDRLTCAY [5T4 9-mer peptide 159 (GKDRLTCAY)]	3 % of positive control
LDNNPWVCD [5T4 9-mer peptide 146 (LDNNPWVCD)]	0 % of positive control
DPILPPSLQ [5T4 9-mer peptide 173 (DPILPPSLQ)]	0 % of positive control
GAIFLLVLY [5T4 9-mer peptide 184 (GAIFLLVLY)]	0 % of positive control
